Experiment: Vincristine plasma PK in presence
Assay type: in vivo, human
Conditions: human, plasma, intravenous, 40 mg, Mean t1/2z (st. dev), alisertib 40 mg b.i.d. cohort, C2D1 (alisertib absent), n=16
Metric: half-life (h)
Reply with just the number (in h).

I would be grateful if you could share the reported half-life for CC[C@]1(O)C[C@H]2CN(CCc3c([nH]c4ccccc34)[C@@](C(=O)OC)(c3cc4c(cc3OC)N(C=O)[C@H]3[C@@](O)(C(=O)OC)[C@H](OC(C)=O)[C@]5(CC)C=CCN6CC[C@]43[C@@H]65)C2)C1 .
20.2

----------
Assay: Alisertib plasma PK in patients
Type: in vivo, human
Settings: human, plasma, oral, 50 mg, Geometric mean Cmax (CV), MR, alisertib 50 mg b.i.d., C1D7, n=12
Metric: Cmax

I would be grateful if you could share the reported Cmax for COc1cc(Nc2ncc3c(n2)-c2ccc(Cl)cc2C(c2c(F)cccc2OC)=NC3)ccc1C(=O)O .
2590 nM

----------
Assay: Alisertib plasma PK in patients
Assay type: in vivo, human
Conditions: human, plasma, oral, 40 mg, Median Tmax (range), MRV, alisertib 40 mg b.i.d., C1D7, n=20
Metric: Tmax (h)
Reply with just the number (in h).

I would be grateful if you could share the reported Tmax for COc1cc(Nc2ncc3c(n2)-c2ccc(Cl)cc2C(c2c(F)cccc2OC)=NC3)ccc1C(=O)O .
3.1

----------
Experiment: Vincristine plasma PK in presence
Format: in vivo, human
Conditions: human, plasma, intravenous, 50 mg, Geometric mean CL (CV), alisertib 50 mg b.i.d. cohort, C1D1 (alisertib present), n=3
Metric: clearance
Answer format reminder: number followed by unit.

I would be grateful if you could share the reported clearance for CC[C@]1(O)C[C@H]2CN(CCc3c([nH]c4ccccc34)[C@@](C(=O)OC)(c3cc4c(cc3OC)N(C=O)[C@H]3[C@@](O)(C(=O)OC)[C@H](OC(C)=O)[C@]5(CC)C=CCN6CC[C@]43[C@@H]65)C2)C1 [vincristine] .
300 mL/min

----------
Experiment: Vincristine plasma PK in presence
Type: in vivo, human
Settings: human, plasma, intravenous, 30 mg, Mean t1/2z (st. dev), alisertib 30 mg b.i.d. cohort, C1D1 (alisertib present), n=4
Metric: half-life

I would be grateful if you could share the reported half-life for CC[C@]1(O)C[C@H]2CN(CCc3c([nH]c4ccccc34)[C@@](C(=O)OC)(c3cc4c(cc3OC)N(C=O)[C@H]3[C@@](O)(C(=O)OC)[C@H](OC(C)=O)[C@]5(CC)C=CCN6CC[C@]43[C@@H]65)C2)C1 [vincristine] .
20.2 h

----------
Assay: Vincristine plasma PK in presence
Format: in vivo, human
Details: human, plasma, intravenous, 40 mg, Geometric mean Cmax (CV), alisertib 40 mg b.i.d. cohort, C1D1 (alisertib present), n=25
Metric: Cmax (ng/mL)
Reply with just the number (in ng/mL).

I would be grateful if you could share the reported Cmax for CC[C@]1(O)C[C@H]2CN(CCc3c([nH]c4ccccc34)[C@@](C(=O)OC)(c3cc4c(cc3OC)N(C=O)[C@H]3[C@@](O)(C(=O)OC)[C@H](OC(C)=O)[C@]5(CC)C=CCN6CC[C@]43[C@@H]65)C2)C1 [vincristine] .
82.9

----------
Test: Alisertib plasma PK in patients
Type: in vivo, human
Details: human, plasma, oral, 50 mg, Geometric mean Cmax (CV), MR, alisertib 50 mg b.i.d., C1D1, n=13
Metric: Cmax (nM)
Reply with just the number (in nM).

I would be grateful if you could share the reported Cmax for COc1cc(Nc2ncc3c(n2)-c2ccc(Cl)cc2C(c2c(F)cccc2OC)=NC3)ccc1C(=O)O .
1400
